biological target: human PAI-1, active, wild-type, non-glycosylated (E. coli-derived) (human, UniProt P05121 24-402); test: cell-based or functional assay
Sequence (P05121 24-402): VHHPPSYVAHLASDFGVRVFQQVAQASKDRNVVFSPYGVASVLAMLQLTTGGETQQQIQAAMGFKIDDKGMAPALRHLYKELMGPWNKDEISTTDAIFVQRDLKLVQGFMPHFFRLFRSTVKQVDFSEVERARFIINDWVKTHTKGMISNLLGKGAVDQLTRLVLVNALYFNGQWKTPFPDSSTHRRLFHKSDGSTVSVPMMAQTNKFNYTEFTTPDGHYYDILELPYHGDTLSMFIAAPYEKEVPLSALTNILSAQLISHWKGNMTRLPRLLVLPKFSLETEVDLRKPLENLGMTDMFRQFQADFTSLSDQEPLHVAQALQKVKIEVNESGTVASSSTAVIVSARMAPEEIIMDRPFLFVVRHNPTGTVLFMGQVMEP
endpoint: IC50 chromogenic

Antibody 25, scFv (scFv, V domains shown) VH: QVQLQQSGAEVKKPGSSVKVSCKASGGTFSSYAISWVRQAPGQGLEWMGGIIPTFGTANYAQKFQGRVTITADESTSTAYMELSGLRSEDTAVYYCARERRQWLEGHFDYWGQGTPVTVSS VL: DIQMTQSPSFLSASIGDRVTITCRASESIYHELAWYQQKPGKAPKLLIYKASSLASGAPSRFSGSGSGTAFTLTISSLQPDDFATYYCQQYSNYPLTFGGGTKLEIK yielded IC50 chromogenic of 13.1 nM

The binder identified as Antibody 02, IgG1, not germlined (antibody, V domains shown) VH: QVQLVQSGAEVKKPGSSVKVSCKASGGTFSSYAISWVRQAPGQGLEWMGGIIPTFGTANYAQKFQGRVTITADESTSTAYMELSSLRSEDTAVYYCAREKRQWLEGHFDYWGRGTLVTVSS VL: DIQMTQSPSTLSASVGDRVTITCRASEGIYHSLAWYQQKPGKAPKLLIYKASSLASGVPSRFSGSGSGTEFTLTISSLQPDDFATYYCQQYSDYPLTFGGGTKVEIK registered its IC50 chromogenic at 1.6 nM

get_value(item= Antibody 11, scFv (scFv, V domains shown) VH: QVQLQQSGAEVKKPGSSVKVSCKASGGTFSSYAISWMRQAPGQGLEWMGGIIPIFGTANYAQKFQGRVTITADESTSTAYMELSGLRSEDTAVYYCAREKRQWLEGHFDYWGRGTPVTVSS VL: DIQMIQSPSFLSASTGDRVTITCQASEGIYHELAWYQQKPGKAPKLLIYRASSLASGAPSRFSGSGSGTDFTLTISSLQPDDFATYYCQQYSNYPLTFGGGTKLEIK , readout=IC50 chromogenic) returns 102 nM
